SYSTEM TESTED: Voltage-gated potassium channel subunit beta-2 (Rattus norvegicus) (UniProt P62483)
Sequence (P62483 whole entry, looked up): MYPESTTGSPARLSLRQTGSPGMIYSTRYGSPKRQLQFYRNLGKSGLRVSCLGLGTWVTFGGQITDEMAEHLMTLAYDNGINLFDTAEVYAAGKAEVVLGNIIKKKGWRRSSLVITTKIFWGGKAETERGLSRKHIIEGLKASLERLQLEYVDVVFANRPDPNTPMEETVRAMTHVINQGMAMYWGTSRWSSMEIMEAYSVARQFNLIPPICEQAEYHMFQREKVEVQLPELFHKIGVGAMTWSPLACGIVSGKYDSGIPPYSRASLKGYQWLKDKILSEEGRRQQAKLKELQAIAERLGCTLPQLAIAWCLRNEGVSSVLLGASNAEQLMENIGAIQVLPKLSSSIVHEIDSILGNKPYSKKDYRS
EXPERIMENT DESCRIPTION: inhibitors of rat Kvbeta2 reductase activity – biochemical, NADPH fluorescence, primary screen (AID 622);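 also: slope of raw intensity against log time taken from 70 to 1610 s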
RUN CONDITIONS: recombinant KvBeta, 4-cyanobenzaldehyde reduction, at 10 µM, active compounds read high
Calls of active or inactive are those of the source.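 The calls were made as follows: active = fluorescence slope higher than the sample average by over 3 SD (cut at about -0.22 in these data, passing the limit was not always enough); inactive = the rest.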
MEASURED PARAMETER: fluorescence slope

**Query** Value wanted: fluorescence slope (Voltage-gated potassium channel subunit beta-2 (Rattus norvegicus) (UniProt P62483)) of entry CN(CC(=O)Nc1ccc(F)c(Cl)c1)S(=O)(=O)c1cccc2nsnc12
**Result** -0.34 (inactive)

**Query** Value wanted: fluorescence slope (Voltage-gated potassium channel subunit beta-2 (Rattus norvegicus) (UniProt P62483)) of entry CCOC(=O)C(C)C1(O)c2ccccc2-c2ncccc21 (stereo unspecified)
**Result** -0.296 (inactive)

**Query** Value wanted: fluorescence slope (Voltage-gated potassium channel subunit beta-2 (Rattus norvegicus) (UniProt P62483)) of entry COc1ccc(NC(=O)N2CCC(c3nc(-c4cccs4)no3)CC2)cc1
**Result** -0.36 (inactive)

**Query** Value wanted: fluorescence slope (Voltage-gated potassium channel subunit beta-2 (Rattus norvegicus) (UniProt P62483)) of entry CC(=O)N1CCN(c2ccc(NC(=O)c3ccc(C(C)(C)C)cc3)cc2)CC1
**Result** -0.494 (inactive)

**Query** Value wanted: fluorescence slope (Voltage-gated potassium channel subunit beta-2 (Rattus norvegicus) (UniProt P62483)) of entry CC1CC(C)CN(c2nc3c(c(=O)[nH]c(=O)n3C)n2CCCSc2nc3ccccc3s2)C1 (stereo unspecified)
**Result** -0.445 (inactive)

**Query** Value wanted: fluorescence slope (Voltage-gated potassium channel subunit beta-2 (Rattus norvegicus) (UniProt P62483)) of entry O=C(CSc1nc2ccccc2[nH]1)c1ccc2c(c1)OCO2
**Result** -0.471 (inactive)
